Items are presented alongside their recorded inhibition at 32 µM.
# Tgt: human C-terminal DNMT3A (623-908a.a.) (Homo sapiens, UniProt Q9Y6K1)
# Construct: The human C-terminal DNMT3A (623-908a.a.); made in house
# Sequence (Q9Y6K1 627-912 limits assumed): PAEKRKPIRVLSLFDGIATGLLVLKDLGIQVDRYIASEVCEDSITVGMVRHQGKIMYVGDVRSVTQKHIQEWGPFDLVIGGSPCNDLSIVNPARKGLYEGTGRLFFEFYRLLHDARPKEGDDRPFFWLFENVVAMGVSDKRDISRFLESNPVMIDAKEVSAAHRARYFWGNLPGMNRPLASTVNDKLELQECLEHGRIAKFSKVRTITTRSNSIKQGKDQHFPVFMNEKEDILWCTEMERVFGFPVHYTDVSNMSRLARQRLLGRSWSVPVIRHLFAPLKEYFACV
# Run description: hDNMT3A assay (restriction-based fluorescence assay)
# Format: biochemical
# Assay conditions: read-out: hDNMT 3A inhibition, Inhibition (%) 32 μM
// return numeric value only (unit: %, not printed)

>  <Molecule>
CCN(CC)CCCNC(=S)N1CCc2cc3c4cc2[C@@H]1Cc1ccc(OC)c(c1)Oc1ccc(cc1)C[C@H]1c2c(cc(OC)c(c2O4)O3)CCN1C(=S)NCCCN(CC)CC [Product 41]

>  <Tgt>
human C-terminal DNMT3A (623-908a.a.) (Homo sapiens, UniProt Q9Y6K1)

>  <inhibition at 32 µM, %>
95

$$$$
>  <Molecule>
CNC(=S)N1CCc2cc(OC)c3c4c2[C@@H]1Cc1ccc(cc1)Oc1cc(ccc1OC)C[C@H]1c2cc(c(cc2CCN1C)O3)O4 [Product 14]

>  <Tgt>
human C-terminal DNMT3A (623-908a.a.) (Homo sapiens, UniProt Q9Y6K1)

>  <inhibition at 32 µM, %>
96

$$$$
>  <Molecule>
COc1ccc2cc1Oc1ccc(cc1)C[C@H]1c3c(cc(OC)c4c3Oc3cc5c(cc3O4)CCN(CC#N)[C@H]5C2)CCN1CC#N [Product 21]

>  <Tgt>
human C-terminal DNMT3A (623-908a.a.) (Homo sapiens, UniProt Q9Y6K1)

>  <inhibition at 32 µM, %>
82

$$$$
>  <Molecule>
COc1ccc2cc1Oc1ccc(cc1)C[C@H]1c3c(cc(OC)c4c3Oc3cc5c(cc3O4)CCN(C)[C@H]5C2)CCN1C(=O)OCCCn1cnc2c(N)ncnc21 [Product 19]

>  <Tgt>
human C-terminal DNMT3A (623-908a.a.) (Homo sapiens, UniProt Q9Y6K1)

>  <inhibition at 32 µM, %>
71

$$$$

Problem: What value of inhibition at 32 µM has been recorded for this entry: CCN(CC)CCCNC(=S)N1CCc2cc(OC)c3c4c2[C@@H]1Cc1ccc(cc1)Oc1cc(ccc1OC)C[C@H]1c2cc(c(cc2CCN1C)O3)O4 [Product 12]
Solution: 93

----------
# Tgt: human C-terminal DNMT3A (623-908a.a.) (Homo sapiens, UniProt Q9Y6K1)
# Construct: The human C-terminal DNMT3A (623-908a.a.); made in house
# Run description: hDNMT3A assay (restriction-based fluorescence assay)
# Assay type: biochemical
# Assay conditions: read-out: hDNMT 3A inhibition, Inhibition (%) 10 μM
# From the text: hDNMT3A enzyme inhibition was adapted from the restriction-based fluorescence assay protocol as described in the literature (Ceccaldi et al. Chem Bio Chem 2011, 12, 1337-1345). […] Specific fluorescent signals were detected with the methylation-sensitive restriction enzyme HpyCH4IV (NEB) as described and measured on a Perkin Elmer Envision detector. […]
We use 70% as the dividing line for inhibition at 10 µM: on or above the line is TRUE, below is FALSE.

Example results:
>  <Query smiles>
CNC(=O)N1CCc2cc(OC)c3c4c2[C@@H]1Cc1ccc(cc1)Oc1cc(ccc1OC)C[C@@H]1NCCc2cc(c(cc21)O4)O3

>  <Tgt>
human C-terminal DNMT3A (623-908a.a.) (Homo sapiens, UniProt Q9Y6K1)

>  <Category>
FALSE

$$$$
>  <Query smiles>
CNC(=O)N1CCc2cc3c4cc2[C@@H]1Cc1ccc(OC)c(c1)Oc1ccc(cc1)C[C@H]1c2c(cc(OC)c(c2O4)O3)CCN1C

>  <Tgt>
human C-terminal DNMT3A (623-908a.a.) (Homo sapiens, UniProt Q9Y6K1)

>  <Category>
FALSE

$$$$
>  <Query smiles>
COc1ccc2cc1Oc1ccc(cc1)C[C@H]1c3c(cc(OC)c4c3Oc3cc5c(cc3O4)CCN(CC#N)[C@H]5C2)CCN1CC#N

>  <Tgt>
human C-terminal DNMT3A (623-908a.a.) (Homo sapiens, UniProt Q9Y6K1)

>  <Category>
FALSE

$$$$

Let's switch to this compound now.
Problem: Quick check: does `CCN(CC)CCCNC(=S)N1CCc2cc3c4cc2[C@@H]1Cc1ccc(OC)c(c1)Oc1ccc(cc1)C[C@H]1c2c(cc(OC)c(c2O4)O3)CCN1C` have inhibition at 10 µM greater than or equal to 70%?
Solution: TRUE
